molecular target: PD-1 (UniProt Q15116 25-167, limits assumed); assay: ELISA, OD mutant/OD WT; A=90-110%
Sequence (Q15116 25-167 limits assumed): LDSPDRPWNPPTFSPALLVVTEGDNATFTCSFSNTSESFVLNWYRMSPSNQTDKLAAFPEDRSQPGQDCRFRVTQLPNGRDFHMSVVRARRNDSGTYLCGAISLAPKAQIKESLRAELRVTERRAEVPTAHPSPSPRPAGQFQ
measured_parameter: binding activity (OD after mutation/OD wild type)

# binder, meas_value
data = [
    ("anti-PD-1 antibody 1 light chain S35C (antibody, human IgG4 S228P, kappa, V domains shown) VH: QVQLVQSGVEVKKPGASVKVSCKASGYTFTNYYMYWVRQAPGQGLEWMGGINPSNGGTNFNEKFKNRVTLTTDSSTTTAYMELKSLQFDDTAVYYCARRDYRFDMGFDYWGQGTTVTVSS VL: EIVLTQSPATLSLSPGERATLSCRASKGVSTSGYCYLHWYQQKPGQAPRLLIYLASYLESGVPARFSGSGSGTDFTLTISSLEPEDFAVYYCQHSRDLPLTFGGGTKVEIKR", "90 to 110%"),
    ("anti-PD-1 antibody 1 light chain G61C (antibody, human IgG4 S228P, kappa, V domains shown) VH: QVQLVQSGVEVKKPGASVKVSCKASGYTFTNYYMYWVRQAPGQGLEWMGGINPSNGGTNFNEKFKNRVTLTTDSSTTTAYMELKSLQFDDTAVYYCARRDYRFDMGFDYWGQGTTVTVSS VL: EIVLTQSPATLSLSPGERATLSCRASKGVSTSGYSYLHWYQQKPGQAPRLLIYLASYLESCVPARFSGSGSGTDFTLTISSLEPEDFAVYYCQHSRDLPLTFGGGTKVEIKR", "90 to 110%"),
    ("anti-PD-1 antibody 2 light chain S28C (antibody, human IgG4 S228P, kappa, V domains shown) VH: QVQLVESGGGVVQPGRSLRLDCKASGITFSNSGMHWVRQAPGKGLEWVAVIWYDGSKRYYADSVKGRFTISRDNSKNTLFLQMNSLRAEDTAVYYCATNDDYWGQGTLVTVSS VL: EIVLTQSPATLSLSPGERATLSCRASQCVSSYLAWYQQKPGQAPRLLIYDASNRATGIPARFSGSGSGTDFTLTISSLEPEDFAVYYCQQSSNWPRTFGQGTKVEIKR", "90 to 110%"),
]
